Test system: Rattus norvegicus
assayOverview: Volume of distribution at steady state in Sprague-Dawley rat at 2 mg/kg, iv administered as bolus dose by LC-MS/MS analysis
Format: ADME, organism-based
runParameters: in vivo
reportedEndpoint: Vdss (mL/kg)
Field: numeric (mL/kg). Do not append units.

stdin: State Vdss on Rattus norvegicus. Entry: CCOc1cc(C(C)(C)C)ccc1C1=NC(c2ccc(Cl)cc2)C(c2ccc(Cl)cc2)N1C(=O)N1CCN(CCCCCCC(=O)NO)CC1 (stereo unspecified)
stdout: 4900
